As shown below, each of these molecules has a reported IC90 value.
System: Acinetobacter baumannii ATCC17961
Assay: Antimicrobial susceptibility testing: 90% growth inhibitory concentration (IC90) determination
Type: cell-based
Settings: Acinetobacter baumannii, ATCC17961, 16 h, read-out: AB ATCC 17961 IC90 (uM)
Counter-ions that a name gives are not always drawn.
Endpoint label: IC90 (µM)

Molecule | Endpoint label | Unit of measurement | Measured
COc1ccc(-c2cnc3c(Nc4ccc(S(C)(=O)=NCCCN)cc4)nccn23)c(F)c1F (stereo not drawn) [Example 68, formic acid] | IC90 | µM | 0.43
COc1ccc(-c2cnc3c(Nc4ccc(S(=O)(=O)NCCOCCN)cc4)nccn23)c(F)c1F [Example 102, hydrochloride] | IC90 | µM | 0.39
CCc1cc(Nc2nccn3c(-c4ccc(OC)c(F)c4F)cnc23)ccc1S(C)(=O)=NCCCN (stereo not drawn) [Example 70, formic acid] | IC90 | µM | 0.19
COc1ccc(-c2cnc3c(Nc4ccc(N5CCC(CN)CC5)cc4)nccn23)c(F)c1F [Example 112, hydrochloride] | IC90 | µM | 0.56
COc1ccc(-c2cnc3c(Nc4ccc(S(=O)(=O)N5CCN(CCCN(C)C)CC5)c(Cl)c4)nccn23)c(F)c1F [Example 96] | IC90 | µM | 0.2
COc1ccc(-c2cnc3c(Nc4ccc(S(C)(=O)=NCCCN)c(C)c4)nccn23)c(F)c1F (stereo not drawn) [Example 67, formic acid] | IC90 | µM | 0.12
